Tested on: K562
Assay: NCI tumour cell line growth inhibition, 48 h
Activity calls are given as the source filed them. Rule as the data show it: active = GI50 up to about 1.1 µM and inactive = higher.
Outcomes: active, inactive

>>> discrete_label("COC(=O)[C@]12CCC(C)(C)C[C@H]1C1=CC[C@@H]3[C@@]4(C)CC[C@H](OC5OC(CO)C(O)C(O)C5OC5OC(CO)C(O)C(O)C5O)C(C)(C)[C@@H]4CC[C@@]3(C)[C@]1(C)CC2 (stereo partly specified)")
"inactive"
>>> discrete_label("O=[N+]([O-])c1cc(/C=N/C23CC4CC(CC(C4)C2)C3)ccc1Cl")
"inactive"
>>> discrete_label("CN(C)C(=O)CC(C(=O)O)c1c[nH]c2ccccc12 (stereo unspecified)")
"inactive"
>>> discrete_label("OC(C/C=N/Nc1ccccc1)(C(F)(F)Cl)C(F)(F)Cl")
"inactive"
>>> discrete_label("CC(=O)OCc1ccc2oc(=O)c(C(=O)Oc3cccc(Cl)c3)cc2c1")
"inactive"
>>> discrete_label("O=C(O)Cc1cccc2c(=O)c3ccccc3oc12")
"inactive"
>>> discrete_label("CC(C)CCC1(CCN)C(=O)NC(=O)NC1=O")
"inactive"
>>> discrete_label("Cc1cccc(NC(=O)c2cccc([N+](=O)[O-])c2O)c1C")
"inactive"
>>> discrete_label("CC(=O)N1CC(=O)NC1=S")
"inactive"
>>> discrete_label("COc1ccc(C[N+]23C(CC[C@H]2c2ccccc2)CC[C@H]3c2ccccc2)cc1 (stereo partly specified)")
"inactive"
>>> discrete_label("O=C1C=CC(=O)C(CNc2ccc(C(=O)OCc3ccccc3)cc2)=C1")
"inactive"
>>> discrete_label("Cc1ccc2c(c1)CC1(Cc3ccccc3C1=O)C2=O (stereo unspecified)")
"inactive"
>>> discrete_label("CCOC(=O)c1sc2nc(SC)nc3c2c1NCN3c1ccccc1Cl")
"inactive"
>>> discrete_label("O=c1c2cc(Br)ccc2nc(-c2ccccc2)n1NCC1(O)OCC(O)C(O)C1O (stereo unspecified)")
"inactive"
>>> discrete_label("c1ccc(C(CCN2CC3CCC(CC3)C2)c2ccccc2)cc1")
"inactive"
>>> discrete_label("N=c1c2c(=S)n(-c3ccccc3)c(=S)n(-c3ccccc3)c2nc(SCCN2CCCC2)n1-c1ccccc1")
"active"
>>> discrete_label("CCOc1cc2c(cc1OC)c[n+](C)c1c3cc(OC)c(OC)cc3ccc21")
"inactive"
>>> discrete_label("COc1cc(OC)c2nc(C)c(CCCl)c(Cl)c2c1")
"inactive"
>>> discrete_label("Nn1c(S)nnc1CCCCCCCCc1nnc(S)n1N")
"inactive"
>>> discrete_label("N#Cc1c(-c2ccc(Cl)cc2)c(C#N)c(=O)n(NS(=O)(=O)c2ccccc2)c1-c1ccccc1")
"inactive"
>>> discrete_label("OC1(C(Sc2cc(C(F)(F)F)cc(C(F)(F)F)c2)Sc2cc(C(F)(F)F)cc(C(F)(F)F)c2)C=CCCC1 (stereo unspecified)")
"inactive"

* * *

Tested on: HCC 2998
Test: NCI tumour cell line growth inhibition, 48 h
Calls of active or inactive are those of the source. Rule as the data show it: active = GI50 up to about 1.1 µM and inactive = higher.
Below, each entry is listed with its recorded GI50.
QUANTITY_MEASURED: GI50

>>> test_result("Nc1ccn(CC(O)c2cc3ccccc3[nH]2)c(=O)n1 (stereo not drawn)")
"> 100 µM (inactive)"
>>> test_result("CC1(c2cccc3c2C2(O)C=CC4(CCC32)OCCO4)OCCO1 (stereo not drawn)")
"> 100 µM (inactive)"
>>> test_result("O=C1C(Br)=CC2(C=C1Br)CCNC1=C2C(=O)c2ncccc2C1=O")
"1.98 µM (inactive)"
>>> test_result("COC(=O)c1cc2ccc(N)nc2[nH]c1=O")
"> 100 µM (inactive)"
>>> test_result("CC(=O)Nc1ccc(C(=O)N[C@@H]2C(=O)N3[C@@H]2SC(C)(C)[C@@H]3C(=O)O)cn1")
"> 100 µM (inactive)"
>>> test_result("Cc1ccc(/N=N/C(=N/c2ccccc2)c2ccc(N(CCC#N)CCC#N)cc2)cc1")
"19.4 µM (inactive)"
>>> test_result("O=C(/C=C/C(=O)N1CCCC1)N1CCCC1")
"> 100 µM (inactive)"
>>> test_result("CC(=O)Nc1ccc(C(=O)NN2C(=O)CSC2c2ccc(O)cc2)cc1 (stereo not drawn)")
"> 100 µM (inactive)"

* * *

System: HOP-62
Assay: NCI tumour cell line growth inhibition, 48 h
The source made the active and inactive calls. No stated cut-off is given here; in the data, active = GI50 up to about 1.1 µM and inactive = higher.
# maps each entry to its GI50
QUANTITY_MEASURED: GI50

>>> test_result("CCOC(=O)C(=O)C(C#N)c1ccc(Cl)cc1 (stereo not drawn)")
"> 100 µM (inactive)"
>>> test_result("O=C(Cn1ccnc1[N+](=O)[O-])c1ccccc1")
"> 100 µM (inactive)"
>>> test_result("Nc1nnc(NC(=O)C2=NS(=O)(=O)c3cc(S(N)(=O)=O)c(Cl)cc3N2)[nH]1")
"> 100 µM (inactive)"

* * *

Item-by-item account of GI50
Tested on: MOLT-4
Assay: NCI tumour cell line growth inhibition, 48 h
Activity calls are given as the source filed them. No stated cut-off is given here; in the data, active = GI50 up to about 1.1 µM and inactive = higher.
QUANTITY_MEASURED: GI50

>>> test_result("O=C(O)c1ccccc1Sc1ccccc1[N+](=O)[O-]")
"> 100 µM (inactive)"
>>> test_result("CCc1ccccc1/N=N/C(=O)NNc1ccccc1CC")
"19.4 µM (inactive)"
>>> test_result("O=C(Nc1ccc(Cl)cc1)Oc1ccc(C(=S)Nc2ccc(Br)cc2)cc1")
"4.44 µM (inactive)"
>>> test_result("CCOC(=O)C1=C(C)NC(=O)NC1c1coc2cc(C)cc(C)c2c1=O (stereo not given)")
"27.5 µM (inactive)"
>>> test_result("Cn1cc2ccccc2c1-c1nc(F)nc(OCC(=O)[C@H]2CCC3[C@@H]4CCC5=CC(=O)CC[C@]5(C)C4[C@@H](O)C[C@@]32C)n1 (stereo not given in full)")
"4.83 µM (inactive)"
>>> test_result("CCN(CC)CCN(C)CC(C)(C)C(=O)/C=C/c1ccccc1")
"5.16 µM (inactive)"
>>> test_result("OC1(C(Sc2cc(C(F)(F)F)cc(C(F)(F)F)c2)Sc2cc(C(F)(F)F)cc(C(F)(F)F)c2)C=CCCC1 (stereo not given)")
"1.65 µM (inactive)"
>>> test_result("CN(NC(=O)c1cccs1)C1=NCCCCN1")
"> 100 µM (inactive)"
>>> test_result("Cc1cc(=O)[nH]c2cc(NC(=O)C(C)NC(=O)C(C)NC(=O)C(C)NC(=O)OC(C)(C)C)ccc12 (stereo not given)")
"> 15 µM (inactive)"
>>> test_result("CN(C)CCS/C(=N\\c1ccccc1)N1C=COC=C1")
"> 84.7 µM (inactive)"

* * *

Tested on: IGROV-1
Test: NCI tumour cell line growth inhibition, 48 h
Activity calls are given as the source filed them. Rule as the data show it: active = GI50 up to about 1.1 µM and inactive = higher.
Possible outcomes: yes (1) for active, no (0) for inactive

>>> discrete_label("C#C[C@]1(O)CC[C@H]2[C@@H]3CCC4=C/C(=N/OC(=O)c5cccc6c(=O)c7ccccc7[nH]c56)CC[C@@H]4[C@H]3CC[C@@]21C")
"no (0)"
>>> discrete_label("N=C1OC(c2c[nH]c3ccc(OCc4ccccc4)cc23)C(O)=C1O (stereo not drawn)")
"no (0)"
>>> discrete_label("O=C(O)c1ccccc1.[Ag]")
"no (0)"
>>> discrete_label("COc1cccc(N2C(=O)c3c(c4[nH]c5ccccc5c4c4ccc(C(C)(C)C)cc34)C2=O)c1")
"no (0)"
>>> discrete_label("O=C(/C=C/C(=O)N1CCCC1)N1CCCC1")
"no (0)"
>>> discrete_label("COc1cccc2c1[C@H](OC)[C@]13O[C@@]1(C2=O)[C@H](O)[C@H](C)[C@@](O)(C(=O)[C@@H]1O[C@H]1C)[C@@H]3O")
"yes (1)"
>>> discrete_label("CC(C)=CC1C(C(=O)O)C1(C)C (stereo not drawn)")
"no (0)"
>>> discrete_label("CCOC(=O)/C(C#N)=C(O)/C(=C\\c1ccc(Br)cc1)NC(=O)c1ccccc1")
"no (0)"
>>> discrete_label("O=[N+]([O-])/C(C(Cl)=C(Cl)Cl)=C1/OCCS1")
"no (0)"
>>> discrete_label("Cn1cnc([N+](=O)[O-])c1Sc1nncc2[nH]cnc12")
"no (0)"
>>> discrete_label("NCCCCNCCCNC(=O)CNC(=O)CC(O)C(N)CCCC(NC(=O)C(CN)NC(=O)C(O)CNC(=O)CC(N)c1ccc(O)cc1)C(=O)O (stereo not drawn)")
"no (0)"
>>> discrete_label("CS[C@]12C(=O)C[C@@]3(C)[C@@H](CC[C@]3(O)C(=O)CO)[C@@H]1CCC1=CC(=O)CC[C@@]12C")
"no (0)"
>>> discrete_label("CC(=O)OCC1OC(N2C(C)=C(C(C)=O)C(c3ccco3)C(C#N)=C2S)C(OC(C)=O)C(OC(C)=O)C1OC(C)=O (stereo not drawn)")
"no (0)"
>>> discrete_label("Cn1c(=O)c2[nH]c(C3CC(=O)CC(c4nc5c([nH]4)c(=O)n(C)c(=O)n5C)N3)nc2n(C)c1=O (stereo not drawn)")
"no (0)"
>>> discrete_label("CCOP(=O)(OCC)/C(C#N)=C/c1ccnc2ccccc12")
"no (0)"
>>> discrete_label("Cc1ccc2c(c1)CC1(Cc3ccccc3C1=O)C2=O (stereo not drawn)")
"no (0)"
>>> discrete_label("CC1=CC(=O)C(C(O)(C(F)(F)F)C(F)(F)F)C(C)(C)C1 (stereo not drawn)")
"no (0)"
>>> discrete_label("Cn1cc(NC(=O)Nc2cc(C(=O)Nc3cc(C(=O)Nc4cc(S(=O)(=O)O)c5cc(S(=O)(=O)O)cc(S(=O)(=O)O)c5c4)n(C)c3)n(C)c2)cc1C(=O)Nc1cc(C(=O)Nc2cc(S(=O)(=O)O)c3cc(S(=O)(=O)O)cc(S(=O)(=O)O)c3c2)n(C)c1")
"no (0)"
